FYI, the data here is from ChEMBL document CHEMBL3763146.

# SYSTEM_TESTED: Beta-3 adrenergic receptor (Macaca mulatta) (UniProt Q28524)
# Sequence (Q28524 whole entry): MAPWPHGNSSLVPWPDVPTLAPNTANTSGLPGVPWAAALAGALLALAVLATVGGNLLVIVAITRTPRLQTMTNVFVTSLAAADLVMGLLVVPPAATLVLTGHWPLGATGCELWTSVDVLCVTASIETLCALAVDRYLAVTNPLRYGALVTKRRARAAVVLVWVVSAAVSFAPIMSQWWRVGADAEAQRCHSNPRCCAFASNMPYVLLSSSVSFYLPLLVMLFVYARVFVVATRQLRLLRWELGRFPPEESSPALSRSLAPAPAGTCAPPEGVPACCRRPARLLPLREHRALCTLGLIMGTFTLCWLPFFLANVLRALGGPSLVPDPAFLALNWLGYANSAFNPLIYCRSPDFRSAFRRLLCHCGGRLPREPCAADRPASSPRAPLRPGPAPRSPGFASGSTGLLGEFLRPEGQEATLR
# ASSAY_EXPLANATION: Agonist activity at rhesus monkey beta3 adrenergic receptor expressed in CHO cells assessed as accumulation of cAMP after 30 mins by TR-FRET assay relative to (R)-(-)-isoproterenol
# Assay type: functional, cell-based
ENDPOINT_NAME: max activation (%)

LINE_NOTATION | max activation, %
O=C(Cn1ncccc1=O)Nc1ccc(C[C@@H]2CC[C@H]([C@H](O)c3ccccc3)N2)cc1 | 91
O=S(=O)(Nc1ccc(CCNC[C@H](O)c2cccnc2)cc1)c1ccc(-c2nc(-c3ccc(C(F)(F)F)cc3)cs2)cc1 | 81
O=C(Nc1ccc(C[C@@H]2CC[C@H]([C@H](O)c3ccccc3)N2)cc1)[C@@H]1CCc2nccc(=O)n21 | 87
C[C@@H](C(=O)Nc1ccc(C[C@@H]2CC[C@H]([C@H](O)c3ccccc3)N2)cc1)n1ncccc1=O | 91

----------
# SYSTEM_TESTED: UniProt P13945
# ASSAY_EXPLANATION: Agonist activity at human beta3 adrenergic receptor expressed in CHO cells assessed as accumulation of cAMP after 30 mins by TR-FRET assay relative to (R)-(-)-isoproterenol
# Format: functional, cell-based
# Sequence (P13945 whole entry, looked up): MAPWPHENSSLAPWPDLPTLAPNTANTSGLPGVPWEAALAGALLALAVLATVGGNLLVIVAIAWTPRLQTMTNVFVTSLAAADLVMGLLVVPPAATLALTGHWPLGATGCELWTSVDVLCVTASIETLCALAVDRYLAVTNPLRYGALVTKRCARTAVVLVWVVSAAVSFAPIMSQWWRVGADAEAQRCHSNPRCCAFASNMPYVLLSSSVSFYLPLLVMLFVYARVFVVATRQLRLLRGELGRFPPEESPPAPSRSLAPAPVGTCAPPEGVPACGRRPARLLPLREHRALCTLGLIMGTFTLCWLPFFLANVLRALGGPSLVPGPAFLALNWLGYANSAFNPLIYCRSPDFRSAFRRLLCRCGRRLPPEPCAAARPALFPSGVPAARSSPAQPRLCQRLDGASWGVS
ENDPOINT_NAME: max activation (%)

LINE_NOTATION | max activation / %
O=C(Nc1ccc(C[C@@H]2CC[C@H]([C@H](O)c3cccnc3)N2)cc1)[C@@H]1CCc2ccnn21 | 84
C[C@@H](C(=O)Nc1ccc(C[C@@H]2CC[C@H]([C@H](O)c3cccnc3)N2)cc1)n1ncccc1=O | 87
O=C(Nc1ccc(C[C@@H]2CC[C@H]([C@H](O)c3ccccc3)N2)cc1)[C@@H]1CCc2cccc(=O)n21 | 94
O=C(Cn1ccccc1=O)Nc1ccc(C[C@@H]2CC[C@H]([C@H](O)c3ccccc3)N2)cc1 | 97
C[C@@H](C(=O)Nc1ccc(C[C@@H]2CC[C@H]([C@H](O)c3ccccc3)N2)cc1)n1ncccc1=O | 92
O=C(Cn1cnccc1=O)Nc1ccc(C[C@@H]2CC[C@H]([C@H](O)c3ccccc3)N2)cc1 | 91
O=C(Cn1cnc2ccccc2c1=O)Nc1ccc(C[C@@H]2CC[C@H]([C@H](O)c3ccccc3)N2)cc1 | 108
O=C(Nc1ccc(C[C@@H]2CC[C@H]([C@H](O)c3cccnc3)N2)cc1)[C@@H]1CCc2scnc21 | 82

----------
# ASSAY_EXPLANATION: Distribution coefficient, logD of the compound at pH 7.4
# Assay type: physicochemical
# SETUP_CONDITIONS: octanol/water
ENDPOINT_NAME: logD

Field: example entries. Status: answers known.
LINE_NOTATION | REPORTED_VALUE
Nc1nc(CC(=O)Nc2ccc(C[C@@H]3CC[C@H]([C@H](O)c4ccccc4)N3)cc2)cs1 | 1.2
O=C(Cn1ncccc1=O)Nc1ccc(C[C@@H]2CC[C@H]([C@H](O)c3ccccc3)N2)cc1 | 1

I. C[C@@H](C(=O)Nc1ccc(C[C@@H]2CC[C@H]([C@H](O)c3ccccc3)N2)cc1)n1ncccc1=O
II. O=S(=O)(Nc1ccc(CCNC[C@H](O)c2cccnc2)cc1)c1ccc(-c2nc(-c3ccc(C(F)(F)F)cc3)cs2)cc1
III. O=C(Nc1ccc(C[C@@H]2CC[C@H]([C@H](O)c3ccccc3)N2)cc1)[C@@H]1CCc2nccc(=O)n21
Task: Ordering criterion: logD; begin with the maximum. Your reply should list the labels following the order given in the request.
Result: II, I, III

----------
# ASSAY_EXPLANATION: Solubility of the compound in buffer at pH <= […]
# Type: physicochemical
ENDPOINT_NAME: solubility

Task: # lookup: solubility of O=C(Nc1ccc(C[C@@H]2CC[C@H]([C@H](O)c3ccccc3)N2)cc1)[C@@H]1CCc2nccc(=O)n21
Result: > 4000 µg/mL

----------
# SYSTEM_TESTED: Beta-3 adrenergic receptor (Homo sapiens, UniProt P13945)
# ASSAY_EXPLANATION: Agonist activity at human beta3 adrenergic receptor expressed in CHO cells assessed as accumulation of cAMP after 30 mins by TR-FRET assay
# Type: functional, cell-based
# Sequence (P13945 whole entry): as the sequence (P13945 whole entry, looked up) above
ENDPOINT_NAME: EC50 (nM)

I. C[C@@H](C(=O)Nc1ccc(C[C@@H]2CC[C@H]([C@H](O)c3cccnc3)N2)cc1)n1ncccc1=O
II. O=C(Cn1cnccc1=O)Nc1ccc(C[C@@H]2CC[C@H]([C@H](O)c3ccccc3)N2)cc1
III. O=C(Nc1ccc(C[C@@H]2CC[C@H]([C@H](O)c3ccccc3)N2)cc1)[C@@H]1CCc2cccc(=O)n21
Task: Please sort the molecules listed above from highest to lowest EC50. Labels, requested order.
Result: II, I, III
